Attribution: the Immune Epitope Database (IEDB)

target: HLA-A*01:01; test: IEDB peptide-MHC binding, purified MHC/competitive/fluorescence; filed as Kd, often an IC50 or EC50 that approximates it; bounds were set here for any values at or beyond the usual limits of such assays; details: source organism: Influenza A virus (A/goose/Guangdong/1/1996(H5N1))

[
  {
    "POLYMER_SEQUENCE": "VSFNQNLEY",
    "Kd": "25.9 nM"
  }
]

====

biological target: HLA-A*02:02; experiment: IEDB peptide-MHC binding, purified MHC/competitive/radioactivity; filed as Kd, often an IC50 or EC50 that approximates it; bounds were set here for any values at or beyond the usual limits of such assays; conditions: source organism: Lymphocytic choriomeningitis virus (strain Armstrong) (clone 53b)

[
  {
    "POLYMER_SEQUENCE": "ALPHIIDEV",
    "SYSTEM_NAME": "HLA-A*02:02",
    "Kd (nM)": 13
  }
]

====

molecular target: HLA-B*54:01; test: IEDB peptide-MHC binding, purified MHC/competitive/radioactivity; filed as Kd, often an IC50 or EC50 that approximates it; bounds were set here for any values at or beyond the usual limits of such assays; details: source organism: Mammarenavirus brazilense
pKd: −log10 of the molar value.
MEASURED_QUANTITY: pKd

[
  {
    "POLYMER_SEQUENCE": "TPTQLAETI",
    "MEASURED_QUANTITY": "pKd",
    "NUMERIC_RESULT": 4.82
  }
]

====

biological target: HLA-A*24:03; assay: IEDB peptide-MHC binding, purified MHC/competitive/fluorescence; filed as Kd, often an IC50 or EC50 that approximates it; bounds were set here for any values at or beyond the usual limits of such assays; conditions: source organism: Burkholderia pseudomallei K96243

[
  {
    "POLYMER_SEQUENCE": "LMRRFRFTV",
    "Kd": "≥ 20 µM"
  }
]

====

target: HLA-A*02:01; assay: IEDB peptide-MHC binding, purified MHC/competitive/fluorescence; bounds were set here for any values at or beyond the usual limits of such assays; conditions: source organism: Ateles geoffroyi

[
  {
    "POLYMER_SEQUENCE": "LPADPASVL",
    "IC50": "≥ 20 µM"
  }
]

====

target: HLA-A*29:02; assay: IEDB peptide-MHC binding, purified MHC/competitive/fluorescence; filed as Kd, often an IC50 or EC50 that approximates it; bounds were set here for any values at or beyond the usual limits of such assays; details: source organism: Cryptosporidium parvum Iowa II
pKd: −log10 of the molar value.

[
  {
    "POLYMER_SEQUENCE": "RIYKRSLKL",
    "pKd": "≤ 4.70"
  }
]

====

molecular target: HLA-A*26:01; experiment: IEDB peptide-MHC binding, purified MHC/competitive/radioactivity; filed as Kd, often an IC50 or EC50 that approximates it; bounds were set here for any values at or beyond the usual limits of such assays; conditions: source organism: Dengue virus 4 Philippines/H241/1956
pKd: −log10 of the molar value.
MEASURED_QUANTITY: pKd

[
  {
    "POLYMER_SEQUENCE": "EVEDYGFGM",
    "MEASURED_QUANTITY": "pKd",
    "NUMERIC_RESULT": 5.41
  },
  {
    "POLYMER_SEQUENCE": "TTANWLWAL",
    "MEASURED_QUANTITY": "pKd",
    "NUMERIC_RESULT": 5.51
  }
]
